Test system: Escherichia coli TOP10;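 note: peptides expressed intracellularly from a pBAD plasmid library in pooled LB shake-flask culture, induced with 0.3% L-arabinose, DNA abundance read by NGS, three biological replicates, DESeq2 with apeglm shrinkage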
Test: shrunken log2 fold change of peptide-encoding DNA abundance (4.5 h post-induction vs induction); higher = less antimicrobial activity (less host growth inhibition)
Conditions: time post-induction: 4.5 h; library: site-saturation at positions 5, 18, 19, 20
Label Y when shrunken log2 fold change >= 0.02; otherwise N.

Prompt: Hi team, for RRIRIRPPRLPRPRPRPKIMPRP , is the recorded shrunken log2 fold change at or above 0.02?
Completion: N

Prompt: Hi team, for RRIRERPPRLPRPRPRPLSNPRP , is the recorded shrunken log2 fold change at or above 0.02?
Completion: N

Prompt: Hi team, for RRIRWRPPRLPRPRPRPEHRPRP , is the recorded shrunken log2 fold change at or above 0.02?
Completion: Y

Prompt: Hi team, for RRIRFRPPRLPRPRPRPWHMPRP , is the recorded shrunken log2 fold change at or above 0.02?
Completion: N

Prompt: Hi team, for RRIRWRPPRLPRPRPRPYTGPRP , is the recorded shrunken log2 fold change at or above 0.02?
Completion: N

Prompt: Hi team, for RRIRIRPPRLPRPRPRPRANPRP , is the recorded shrunken log2 fold change at or above 0.02?
Completion: Y

Prompt: Hi team, for RRIRQRPPRLPRPRPRPGETPRP , is the recorded shrunken log2 fold change at or above 0.02?
Completion: N

Prompt: Hi team, for RRIRFRPPRLPRPRPRPTNLPRP , is the recorded shrunken log2 fold change at or above 0.02?
Completion: N

Prompt: Hi team, for RRIRIRPPRLPRPRPRPDNCPRP , is the recorded shrunken log2 fold change at or above 0.02?
Completion: N

Prompt: Hi team, for RRIRWRPPRLPRPRPRPYHQPRP , is the recorded shrunken log2 fold change at or above 0.02?
Completion: N

Prompt: Hi team, for RRIRGRPPRLPRPRPRPGDVPRP , is the recorded shrunken log2 fold change at or above 0.02?
Completion: Y

Prompt: Hi team, for RRIRERPPRLPRPRPRPQSQPRP , is the recorded shrunken log2 fold change at or above 0.02?
Completion: Y

Prompt: Hi team, for RRIRFRPPRLPRPRPRPWEAPRP , is the recorded shrunken log2 fold change at or above 0.02?
Completion: N

Prompt: Hi team, for RRIRDRPPRLPRPRPRPHSFPRP , is the recorded shrunken log2 fold change at or above 0.02?
Completion: Y

Prompt: Hi team, for RRIRDRPPRLPRPRPRPSGYPRP , is the recorded shrunken log2 fold change at or above 0.02?
Completion: N

Prompt: Hi team, for RRIRCRPPRLPRPRPRPPHLPRP , is the recorded shrunken log2 fold change at or above 0.02?
Completion: Y

Prompt: Hi team, for RRIRNRPPRLPRPRPRPAADPRP , is the recorded shrunken log2 fold change at or above 0.02?
Completion: Y

Prompt: Hi team, for RRIRVRPPRLPRPRPRPYSHPRP , is the recorded shrunken log2 fold change at or above 0.02?
Completion: N

Prompt: Hi team, for RRIRHRPPRLPRPRPRPDSMPRP , is the recorded shrunken log2 fold change at or above 0.02?
Completion: Y

Prompt: Hi team, for RRIRYRPPRLPRPRPRPIGQPRP , is the recorded shrunken log2 fold change at or above 0.02?
Completion: N

Prompt: Hi team, for RRIRNRPPRLPRPRPRPLQAPRP , is the recorded shrunken log2 fold change at or above 0.02?
Completion: N

Prompt: Hi team, for RRIRFRPPRLPRPRPRPHCLPRP , is the recorded shrunken log2 fold change at or above 0.02?
Completion: N

Prompt: Hi team, for RRIRSRPPRLPRPRPRPLRDPRP , is the recorded shrunken log2 fold change at or above 0.02?
Completion: Y

Prompt: Hi team, for RRIRTRPPRLPRPRPRPFNWPRP , is the recorded shrunken log2 fold change at or above 0.02?
Completion: N

Prompt: Hi team, for RRIRLRPPRLPRPRPRPDEWPRP , is the recorded shrunken log2 fold change at or above 0.02?
Completion: N

Prompt: Hi team, for RRIRMRPPRLPRPRPRPIVDPRP , is the recorded shrunken log2 fold change at or above 0.02?
Completion: Y

Prompt: Hi team, for RRIRPRPPRLPRPRPRPENTPRP , is the recorded shrunken log2 fold change at or above 0.02?
Completion: Y

Prompt: Hi team, for RRIRQRPPRLPRPRPRPEDLPRP , is the recorded shrunken log2 fold change at or above 0.02?
Completion: Y

Prompt: Hi team, for RRIRFRPPRLPRPRPRPQWYPRP , is the recorded shrunken log2 fold change at or above 0.02?
Completion: N

Prompt: Hi team, for RRIRDRPPRLPRPRPRPFIVPRP , is the recorded shrunken log2 fold change at or above 0.02?
Completion: N

Prompt: Hi team, for RRIRARPPRLPRPRPRPGNEPRP , is the recorded shrunken log2 fold change at or above 0.02?
Completion: Y

Prompt: Hi team, for RRIRVRPPRLPRPRPRPEMLPRP , is the recorded shrunken log2 fold change at or above 0.02?
Completion: Y
